The reported numbers originate from the supplement of paper PMC11316812.

# reported percentage of EdU-negative; entries follow
Tested on: MCF7;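 also: secreted proteins added to cultured cells, EdU pulse at the end, nuclei found by Hoechst imaging, EdU status from nuclear versus surrounding ring intensity ratio, PBS as neutral control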
Assay: percentage of EdU-negative (G0-arrested) nuclei per well, 72 h; higher = more G0 arrest
Conditions: protein concentration 0.225 µM; reference: sequence is the full UniProt precursor, the tested protein was the secreted form or ectodomain

[
  {
    "construct_sequence": "MKYLRHRRPNATLILAIGAFTLLLFSLLVSPPTCKVQEQPPAIPEALAWPTPPTRPAPAPCHANTSMVTHPDFATQPQHVQNFLLYRHCRHFPLLQDVPPSKCAQPVFLLLVIKSSPSNYVRRELLRRTWGRERKVRGLQLRLLFLVGTASNPHEARKVNRLLELEAQTHGDILQWDFHDSFFNLTLKQVLFLQWQETRCANASFVLNGDDDVFAHTDNMVFYLQDHDPGRHLFVGQLIQNVGPIRAFWSKYYVPEVVTQNERYPPYCGGGGFLLSRFTAAALRRAAHVLDIFPIDDVFLGMCLELEGLKPASHSGIRTSGVRAPSQRLSSFDPCFYRDLLLVHRFLPYEMLLMWDALNQPNLTCGNQTQIY [Q9Y2A9]",
    "percentage of EdU-negative (%)": 30.2
  },
  {
    "construct_sequence": "MSSFSTTTVSFLLLLAFQLLGQTRANPMYNAVSNADLMDFKNLLDHLEEKMPLEDEVVPPQVLSEPNEEAGAALSPLPEVPPWTGEVSPAQRDGGALGRGPWDSSDRSALLKSKLRALLTAPRSLRRSSCFGGRMDRIGAQSGLGCNSFRY",
    "percentage of EdU-negative (%)": 25.7
  }
]
